Tested on: NCI/ADR-RES ovarian
TEST_NAME: NCI tumour cell line growth inhibition, 48 h
Reported TGI values are given for each entry in this list.
METRIC_NAME: TGI

• CNC(=O)c1nn(C)c2c1C(C)(C)Cc1cnc(Nc3ccc(N4CCN(C)CC4)cc3)nc1-2 = > 10 µM
• CCC(C(=O)C(=O)OC)P1(=O)OC(C)(C)CN1C(C)(C)C (stereo not drawn) = > 100 µM
• COC(=O)[C@H](Cc1ccccc1)NC(=O)CCCCCCC(=O)NO = > 100 µM

* * *

Tested on: SW-620 colon
TEST_NAME: NCI tumour cell line growth inhibition, 48 h
Reported TGI values are given for each entry in this list.
METRIC_NAME: TGI

* OCc1ccc2c(c1)CC1(Cc3ccc(/C=N/O)cc3C1)C2 (stereo not given) | > 100 µM
* O=C1NCN(c2ccccc2)C12CCN(CCCN1CCN(CCOC(c3ccc(F)cc3)c3ccc(F)cc3)CC1)CC2 | 7.87 µM
* O=c1[nH]c(Nc2cccc(CO)c2)nc2nc[nH]c12 | > 100 µM
* O=[N+]([O-])c1ccc2c(c1)C1=NN(c3ccccc3)C(c3ccccc3Br)C1CCC2 (stereo not given) | > 50 µM
* CC(C(=O)O)C(C)(O)C(=O)O (stereo not given) | > 100 µM
* Cn1c2c(c3ccccc31)CCN(CCN1CCN(c3cccc(Cl)c3)CC1)C2=O | > 100 µM
* COc1nc(C#CC(C)(C)C)nc(OC)n1 | 73.3 µM
* COc1ccc2c(c1)/C(=C/c1cc(OC)c(OC)c(OC)c1)C(=O)N2 | > 100 µM
* O=C(N[C@@H](C[Se][Se]C[C@H](NC(=O)c1ccc(Br)cc1F)C(=O)O)C(=O)O)c1ccc(Br)cc1F | > 100 µM
* O=C(c1ccncc1)C1C(=O)c2ccccc2C1C1(O)c2ccccc2CC1C(O)c1ccncc1 (stereo not given) | > 100 µM

Entry source: PubChem BioAssay (NCI)
